target: alpha-1-proteinase inhibitor (API) (Homo sapiens, UniProt P01009); assay type: binding
Sequence (P01009 25-418): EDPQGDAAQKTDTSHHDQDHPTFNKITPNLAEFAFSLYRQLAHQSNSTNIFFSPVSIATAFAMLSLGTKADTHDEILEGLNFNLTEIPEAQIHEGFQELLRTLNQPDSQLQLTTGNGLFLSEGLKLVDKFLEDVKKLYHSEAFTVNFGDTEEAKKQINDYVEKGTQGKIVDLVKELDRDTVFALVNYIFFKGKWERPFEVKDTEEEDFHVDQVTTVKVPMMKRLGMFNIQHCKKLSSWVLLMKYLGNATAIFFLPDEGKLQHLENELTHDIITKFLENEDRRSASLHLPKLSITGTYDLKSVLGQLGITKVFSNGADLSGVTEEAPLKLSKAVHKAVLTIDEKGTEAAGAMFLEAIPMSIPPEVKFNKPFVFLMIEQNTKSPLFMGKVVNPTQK
assay-metric: binding to API

APPRTV: Table 2 sample 5
API-binding
SDLRRL: Table 2 sample 4
API-binding
SKNNAA: Table 2 sample 8
API-binding
RDYDTD: Table 2 sample 2
API-binding
NFZQNT: Table 2 sample 7
API-binding
VLYTNN: Table 2 sample 6
API-binding
LKRIEY: Table 2 sample 3
API-binding

Now for the substance whose binding to API we want.
Query: // query binding to API value for entry AQTFHD: Table 2 sample 1
Reply: API-binding

Taken from patent US20020155106A1.
